- assay_target: IMP-1 (Serratia marcescens)
- Construct: made in house; host or cells: E. coli BL21(DE3) derivative, pET-9a
- assay_explanation: MBL inhibition, reporter substrate method, IMP-1
- Format: biochemical
- experimental_setup: read-out: Inhibition of IMP-1 (dash in Ki column)
Assign inhibition at 100 µM to each entry below.

O=C(O)c1ccccc1CNn1c(COc2ccc3ccccc3c2)n[nH]c1=S [Compound 12]	< 40%
O=C(O)c1ccccc1CNn1c(-c2ccccc2)n[nH]c1=S [Compound 1]	< 40%
O=C(O)c1ccccc1CNn1c(Cc2ccccc2)n[nH]c1=S [Compound 6]	< 40%
Cc1ccccc1-c1n[nH]c(=S)n1NCc1ccccc1C(=O)O [Compound 2]	< 40%

Would you mind giving inhibition at 100 µM for every molecule in the list below?
1. O=C(O)c1ccccc1CNn1c(-c2ccc3ccccc3c2)n[nH]c1=S [Compound 4]
2. O=C(O)c1ccc(CNn2c(CCc3ccccc3)n[nH]c2=S)cc1 [Compound 10]
3. O=C(O)c1ccccc1CNn1c(CCc2ccccc2)n[nH]c1=S [Compound 8]
4. O=C(O)c1ccccc1CNn1c(Cc2ccc3ccccc3c2)n[nH]c1=S [Compound 7]
5. O=C(O)c1ccccc1CNn1c(CC(c2ccccc2)c2ccccc2)n[nH]c1=S [Compound 11]
6. O=C(O)c1ccccc1CNn1c(-c2cc3ccccc3[nH]2)n[nH]c1=S [Compound 5]
7. O=[N+]([O-])c1ccccc1CNn1c(CCc2ccccc2)n[nH]c1=S [Compound 9]

< 40%
< 40%
< 40%
< 40%
< 40%
< 40%
< 40%

---

- assay_target: IMP-1 (Serratia marcescens, UniProt P52699)
- Construct: made in house; host or cells: E. coli BL21(DE3) derivative, pET-9a
- Sequence (P52699 19-246 limits assumed): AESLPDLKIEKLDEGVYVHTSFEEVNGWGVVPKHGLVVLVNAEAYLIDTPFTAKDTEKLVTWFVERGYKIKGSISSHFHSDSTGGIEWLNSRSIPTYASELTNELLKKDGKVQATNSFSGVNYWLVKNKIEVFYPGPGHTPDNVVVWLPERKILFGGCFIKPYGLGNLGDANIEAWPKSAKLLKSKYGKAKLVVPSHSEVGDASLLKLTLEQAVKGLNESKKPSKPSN
- assay_explanation: MBL inhibition, reporter substrate method, IMP-1
- Type: biochemical
- experimental_setup: value in parentheses; analogs of compounds 5 and 6 (this work); read-out: Ki Value IMP-1, corresponding hydrazone-like compound
attribute_measured: pKi
One number for each entry, as −log10 of the molar value.

O=C(O)c1ccccc1C=Nn1c(-c2cc3ccccc3[nH]2)n[nH]c1=S [hydrazone-like analog of 5]	4.26

Here is the next item to consider.
Quick one: pKi for O=C(O)c1ccccc1C=Nn1c(Cc2ccccc2)n[nH]c1=S [hydrazone-like analog of 6] ?
4.55

---

- assay_target: NDM-1 (Klebsiella pneumoniae)
- Sequence (C7C422 37-270 limits assumed): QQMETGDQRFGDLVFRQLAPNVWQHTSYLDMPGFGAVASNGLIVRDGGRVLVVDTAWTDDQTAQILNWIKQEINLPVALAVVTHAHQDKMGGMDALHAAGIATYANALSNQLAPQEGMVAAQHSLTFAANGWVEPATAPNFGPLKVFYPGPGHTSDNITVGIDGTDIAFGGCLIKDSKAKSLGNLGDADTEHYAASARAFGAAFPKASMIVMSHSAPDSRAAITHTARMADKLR
- assay_explanation: MBL inhibition, reporter substrate method, NDM-1
- Type: biochemical
- experimental_setup: value in parentheses; analogs of compounds 5 and 6 (this work); read-out: Ki Value NDM-1, corresponding hydrazone-like compound
What Ki was measured for each of the following?
Could you give the number and then its unit, please?

O=C(O)c1ccccc1C=Nn1c(Cc2ccccc2)n[nH]c1=S [hydrazone-like analog of 6]	42 µM

Sample O=C(O)c1ccccc1C=Nn1c(-c2cc3ccccc3[nH]2)n[nH]c1=S [hydrazone-like analog of 5] — what was its Ki?
9.4 µM

Measured values drawn from paper PMC7465886 for this set.
